Sourced from the RNAGym collection of RNA variant scans (doi:10.7554/elife.80360)

B1: CPEB3 Ribozyme (parent)
chain: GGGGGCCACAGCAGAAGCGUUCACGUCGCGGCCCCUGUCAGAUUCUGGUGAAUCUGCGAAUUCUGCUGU

Variants of: B1
protocolText: self-cleavage, relative activity (ratio to wild type); higher = more cleavage; co-transcriptional
So I've got a bunch of variants here, and I need their self-cleavage values.
Answer using only a numeral; do not append any unit.

Given the entry "GGGGGCCACAGCAGAAGCGUUCUCGUCGCGGCCCCUGUCAGAUUCUGCUGAAUCUGCGAAUUCUGCUGU" , report its measured self-cleavage.
1.06

Further, for "GGGGGCCACAGCAGAAGCGUUCACGUCGCGGCCCCGGUCAGAUUCUGUUGAAUCUGCGAAUUCUGCUGU" ?
0.196

What about this variant? "GGGGGCCACAGCAGAAGCGUUCACGUCGCGGCCCCUGUCAGAUUCUGGUGAAUAUGCAAAUUCUGCUGU"
0.883

Another variant: "GGGGACCACAGCAGAAGCGUUCACGUCGCGGCCCCUGUCAGAUUCUGGUGAAUCUGCGAAUUGUGCUGU"
0.448

Would you mind doing "GGGGGCCACCGCAGAAGCGUUCACGUCCCGGCCCCUGUCAGAUUCUGGUGAAUCUGCGAAUUCUGCUGU" as well?
0.102

Could you do the same for "GGGGGCCACAGCAGAAGCGUUCACGUCGCGGCCCCUGUCAGUUUCUGGUGAAUCUGCGCAUUCUGCUGU" , please?
0.546

Next: "GGGGGCCACAGCAGAAGCGUUCACGUCGCGGCCCCUGUCAGAUUCUGGUGAAUCUGCUAAUUAUGCUGU"
0.951

What do you have for "GGGGGUCACAGCAGAAGCGUUUACGUCGCGGCCCCUGUCAGAUUCUGGUGAAUCUGCGAAUUCUGCUGU" ?
0.198

How about "GGGGGCCACAGCAGAAUCGUUCACGUCGCGGCCCCUGUCAGAUUCAGGUGAAUCUGCGAAUUCUGCUGU" ?
0.624

What do you have for "GGCGGCCACAGCAGAAGCGUUCACGUCGCGGCCCCUGUCAGAUUCUGGUGAAUCUGCGAAUUUUGCUGU" ?
0.171

And the next one, "GGGGGCCACAGCAGAAGCGUUGACGUCGAGGCCCCUGUCAGAUUCUGGUGAAUCUGCGAAUUCUGCUGU" ?
0.258

Also, "GGGGGCCACAGCAGAAGCGUUCACGUCGCGGCCCCUGUCAGAUUCUGGUAAAUCUGCGAAUUCUGCUGU" please.
0.999

And "GGGAGCCACAGCAGAAGCGUUAACGUCGCGGCCCCUGUCAGAUUCUGGUGAAUCUGCGAAUUCUGCUGU" ?
0.087

Another variant to look at: "GGGGGCCACAGCAGAGGCGUUCACGUCGCGGCCCCUGUCAGAUUCUGGUAAAUCUGCGAAUUCUGCUGU"
0.915

Next up: "GGGGGCCACAGCAGAAGCCUUCACGUCGCGGCCCCUGUCAGAUUCUGGUGUAUCUGCGAAUUCUGCUGU"
0.157

Now the variant "GGGGGGCAUAGCAGAAGCGUUCACGUCGCGGCCCCUGUCAGAUUCUGGUGAAUCUGCGAAUUCUGCUGU"
0.489

Here is the next variant: "GGGGGCCACAGCAAAAGCGUUCACGUCGCGGCCCCUGUCAGAUUCUGGUGAAUCUGCGAAUUCUGCUUU"
0.765

Queued: "GGGGGCCACAGCAGAAGCGUUCACGUCGCGGCCCCUUUCAGAUUCUGGUGAAUCUGCGAAUUCUGCUGG"
0.354

Entry "GGGGGCCACAGCAGAAGCGUUCACGUCGCGGCCCCUGUCAGGUUCCGGUGAAUCUGCGAAUUCUGCUGU" please
0.965

What do we get for "GGGGGCCACAGCCGAAGCGUUCACUUCGCGGCCCCUGUCAGAUUCUGGUGAAUCUGCGAAUUCUGCUGU" ?
0.104

What would you report for "GGGGGCCACAGCAGAAGGGUUCACGUCGCGGCCCCUGUCAGAUGCUGGUGAAUCUGCGAAUUCUGCUGU" ?
0.169

Okay, and "GGGGGCCACAGCAGAAGCGUUCACGUCGCGGCCCCUGUCAGACUCUGGUGAAGCUGCGAAUUCUGCUGU" ?
0.978
